biological target: FLuc-C-HiBiT (firefly luciferase) (Photinus pyralis, UniProt P08659, form not given/L550V); experiment: Firefly luciferase (FLuc) enzymatic luminescence assay, FLuc-C-HiBiT; assay type: biochemical; set-up: key: % normalized; no enzyme control = 100% inhibition, DMSO = 0; settings: sheet Figure 1g (values as in Figure 1f); normalized activity; Log [Compound], M -5.44
Sequence (P08659 2-550 L550V, form open): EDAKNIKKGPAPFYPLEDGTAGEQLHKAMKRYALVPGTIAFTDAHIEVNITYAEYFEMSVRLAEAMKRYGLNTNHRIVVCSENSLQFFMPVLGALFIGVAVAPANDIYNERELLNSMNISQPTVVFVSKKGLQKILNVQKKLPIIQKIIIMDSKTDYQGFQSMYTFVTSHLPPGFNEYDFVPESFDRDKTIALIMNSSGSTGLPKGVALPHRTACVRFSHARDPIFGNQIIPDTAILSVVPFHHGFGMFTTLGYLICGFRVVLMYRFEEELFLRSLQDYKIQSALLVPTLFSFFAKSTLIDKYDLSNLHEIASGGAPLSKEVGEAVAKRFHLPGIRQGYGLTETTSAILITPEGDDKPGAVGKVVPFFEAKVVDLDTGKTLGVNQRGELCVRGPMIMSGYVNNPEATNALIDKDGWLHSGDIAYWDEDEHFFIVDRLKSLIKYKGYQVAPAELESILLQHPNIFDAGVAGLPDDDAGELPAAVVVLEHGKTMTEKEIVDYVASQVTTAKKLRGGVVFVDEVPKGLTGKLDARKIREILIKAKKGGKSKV
Property measured: FLuc Enzyme

>>> endpoint_result("COc1ccc(-c2nc(-c3ccc(C(=O)O)cc3)no2)cc1")
-92.1
>>> endpoint_result("CC1CCCN(c2ncnc3c2cnn3-c2ccccc2)C1 (centres unmarked)")
-86.0
>>> endpoint_result("CNC(=O)c1cccc2c1CCN2C(=O)Nc1ccc(C)cc1")
-95.0
>>> endpoint_result("CC(CNC(=O)C1CCN(C(=O)c2ncn3c2COC(c2ccccc2)C3)CC1)c1ccccc1 (centres unmarked)")
-56.6
>>> endpoint_result("O=C(O)c1cccc2c1CCN2C(=O)Nc1ccc(F)cc1")
-83.8
>>> endpoint_result("Cc1ccc(-n2ncc3c(N4CCCCCC4)ncnc32)cc1")
-91.6
>>> endpoint_result("O=C(O)CCSc1nnc(-c2ccc(Cl)cc2Cl)o1")
-83.8
>>> endpoint_result("Fc1ccc(-c2cn3cc(Cc4ccccc4)sc3n2)cc1")
-86.7

====

biological target: FLuc-C-HiBiT (Photinus pyralis); construct: firefly luciferase with C-terminal HiBiT tag, E. coli expressed; experiment: biochemical; settings: enzyme activity, 10 uM ATP; read-out: IC50 or SDR50 (mM) / FLuc E
The reader will find reported IC50 values listed item by item below.
Property measured: IC50

>>> endpoint_result("O=C(O)c1cccc(-c2noc(-c3cccc(C(F)(F)F)c3)n2)c1")
"0.0157 µM"
>>> endpoint_result("Cc1ccn2c(Nc3ccc(C(C)C)cc3)c(-c3cccs3)nc2c1")
"11.1 µM"
>>> endpoint_result("COc1cc2c(cc1-c1ccc(CO)cc1)NC(=O)C21CCN(C)CC1")
"20.2 µM"
>>> endpoint_result("COc1ccc(-n2nc(C)c([C@@H]3C=C[C@@H](NC(=O)NCc4ccccc4)C3)c2C)cc1")
"6.4 µM"

====

target: FLuc-C-HiBiT (Photinus pyralis, UniProt P08659); construct: firefly luciferase with C-terminal HiBiT tag, E. coli expressed; assay: biochemical; settings: enzyme activity, 10 uM ATP; read-out: IC50 or SDR50 (mM) / FLuc E
Sequence (P08659 whole entry, looked up): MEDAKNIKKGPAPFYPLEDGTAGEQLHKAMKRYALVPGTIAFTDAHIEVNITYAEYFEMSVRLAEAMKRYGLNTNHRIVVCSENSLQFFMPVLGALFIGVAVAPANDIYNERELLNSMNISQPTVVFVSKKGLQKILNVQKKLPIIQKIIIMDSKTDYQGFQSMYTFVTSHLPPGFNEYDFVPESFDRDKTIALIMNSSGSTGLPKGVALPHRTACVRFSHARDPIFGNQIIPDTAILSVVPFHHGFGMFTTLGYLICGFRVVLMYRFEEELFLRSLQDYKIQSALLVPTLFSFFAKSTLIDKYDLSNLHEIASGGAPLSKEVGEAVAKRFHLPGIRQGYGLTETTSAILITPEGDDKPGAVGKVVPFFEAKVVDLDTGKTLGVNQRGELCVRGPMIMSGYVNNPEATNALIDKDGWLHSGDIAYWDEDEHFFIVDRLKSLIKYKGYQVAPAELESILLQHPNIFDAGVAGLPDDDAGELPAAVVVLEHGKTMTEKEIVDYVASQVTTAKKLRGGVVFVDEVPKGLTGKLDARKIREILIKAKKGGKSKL
# Condition met = IC50 below 4 µM (exclusive); Condition not met = IC50 at/above 4 µM

>>> answer_label("COc1cc(C(=O)NC2CCCN(c3cc(-c4ccc(F)cc4)n[nH]3)C2)cc(OC)c1OC (centres unmarked) [NCGC00437480-01]")
"Condition not met"
>>> answer_label("Cc1ncc(C(=O)NCc2ccc3[nH]c(-c4ccccc4F)c(C)c3c2)c(C)n1 [NCGC00435925-01]")
"Condition not met"
>>> answer_label("CCc1noc(-c2nc(-c3ccccc3F)no2)n1 [NCGC00450040-01]")
"Condition not met"
>>> answer_label("Cc1ccc(-c2cccc(COc3cnc4c(ccn4CC(=O)O)c3)c2)cc1 [NCGC00418171-01]")
"Condition not met"
>>> answer_label("Cc1cc(NCCc2cnccn2)nc(-c2ccccc2O)n1 [NCGC00445970-01]")
"Condition not met"
>>> answer_label("Cc1ccc2nc(-c3ccc(NC(=O)Cc4ccccc4)cc3)sc2c1 [NCGC00098885-01]")
"Condition not met"
>>> answer_label("COc1cccc(C(=O)Nc2ccc(-c3nc4ccccc4s3)cc2Cl)c1 [NCGC00137802-01]")
"Condition not met"
>>> answer_label("c1ccc2sc(-c3cc4c(c(OC5CCOC5)c3)OCCN(Cc3cccn3-c3nccs3)C4)nc2c1 (centres unmarked) [NCGC00240062-01]")
"Condition not met"
>>> answer_label("COc1ccc(C2=NOC3(CCN([S+](=O)([O-])c4cccs4)C3)C2)cc1 (centres unmarked) [NCGC00476604-01]")
"Condition not met"
>>> answer_label("c1ccc(-c2noc(-c3nc(C4CC4)no3)n2)cc1 [NCGC00450069-01]")
"Condition not met"
>>> answer_label("COc1cccc(-c2ccc(-c3nc(C4CCOC4)no3)o2)c1 (centres unmarked) [NCGC00448436-01]")
"Condition not met"
>>> answer_label("COc1cccc(-c2noc(-c3ccc(N4CCCC(CO)C4)nc3)n2)c1OC (centres unmarked) [NCGC00425266-01]")
"Condition met"
>>> answer_label("Cc1ccc(-c2nnc(SCc3ccccc3C)o2)cc1 [NCGC00103155-01]")
"Condition not met"
>>> answer_label("CCCCOc1nc(N)c2[nH]c(=O)n(CCCN(CCCN3CCOCC3)Cc3cccc(CC(=O)OC)c3)c2n1 [NCGC00886690-01]")
"Condition not met"
>>> answer_label("COc1ccc(NC(=O)Nc2ccc(C)n(CC(=O)NCC(C)C)c2=O)cc1 [NCGC00430836-01]")
"Condition met"
>>> answer_label("O[C@H]1C[C@@H](c2cc(N3CCc4c(Cl)cccc4C3)ncn2)C1 [NCGC00424922-01]")
"Condition not met"
>>> answer_label("CCC(C)(C)NC(=O)c1cccc2c1CCN2C(=O)Nc1cccc(C)c1 [NCGC00430120-01]")
"Condition not met"
>>> answer_label("CCOC1CCCN(c2ncnc3c2cnn3-c2ccccc2)C1 (centres unmarked) [NCGC00616559-01]")
"Condition not met"
>>> answer_label("CN1CCN(c2ccc(-c3cc4c(ccn4C)c(C(=O)NCCc4ccccn4)n3)cc2)CC1 [NCGC00411712-01]")
"Condition met"
>>> answer_label("COc1ccccc1-c1noc(-c2ccc(N3CCN(C)CC3)c([N+](=O)[O-])c2)n1 [NCGC00119222-01]")
"Condition not met"
>>> answer_label("Cc1ccc2[nH]c([C@H]3CCN(C(C)C)C3)nc2c1 [NCGC00391182-01]")
"Condition not met"
>>> answer_label("O=C(CSc1nnc2[nH]c(=O)cc(-c3ccccc3)n12)Nc1ccc(OC(F)(F)F)cc1 [NCGC00136515-01]")
"Condition not met"
>>> answer_label("O=C(c1ccncc1)N1CCC(Oc2ccc(-c3noc(-c4ccccc4)n3)cc2)C1 (centres unmarked) [NCGC00440993-01]")
"Condition not met"
>>> answer_label("CCCc1nn2cc(-c3ccc(C)c(C)c3)nc2s1 [NCGC00117454-01]")
"Condition met"
>>> answer_label("Cc1ccc(NC(=O)C2CCN(C(=O)c3ncn4c3COC(c3ccccc3)C4)CC2)cc1 (centres unmarked) [NCGC00449903-01]")
"Condition met"
>>> answer_label("O=C(O)c1cccc(-c2noc(-c3ccccc3Cl)n2)c1 [NCGC00168762-01]")
"Condition met"
>>> answer_label("O=C(Nc1ccccc1F)c1ccc(-c2ccccc2)s1 [NCGC00114318-01]")
"Condition met"
>>> answer_label("COc1cc(OC)cc(C(=O)Nc2ccc(-c3nc4ccccc4s3)cc2C)c1 [NCGC00103060-01]")
"Condition not met"
>>> answer_label("COc1ccc(-c2nc3ccccc3s2)cc1NC(=O)c1cc(OC)c(OC)c(OC)c1 [NCGC00102099-01]")
"Condition met"
>>> answer_label("CC(CCc1ccc(O)cc1)N1CCOc2c(O)cc(-c3nc4ccccc4s3)cc2C1 (centres unmarked) [NCGC00240078-01]")
"Condition not met"
>>> answer_label("Cc1ccc(C(=O)Nc2cccc3cccnc23)cc1Cl [NCGC00103195-01]")
"Condition not met"
>>> answer_label("Cc1ccc2oc([C@H]3CCN(Cc4cccs4)C3)nc2c1 [NCGC00397825-01]")
"Condition not met"
>>> answer_label("CCC(=O)N1CCN(c2nc3c(s2)CC(C(=O)O)CC3)CC1 (centres unmarked) [NCGC00432761-01]")
"Condition not met"
>>> answer_label("O=C(Nc1ccc(O)c(-c2nc3ccccc3s2)c1)c1cc2ccccc2o1 [NCGC00595541-01]")
"Condition not met"

====

target: FLuc-C-HiBiT (firefly luciferase) (Photinus pyralis, UniProt P08659, form not given/L550V); experiment: Firefly luciferase (FLuc) enzymatic luminescence assay, FLuc-C-HiBiT; assay type: biochemical; set-up: key: % normalized; no enzyme control = 100% inhibition, DMSO = 0; details: 10 nM FLuc-C-HiBiT; normalized activity; Log [Compound], M -4.96
Property measured: FLuc Enzyme

>>> endpoint_result("O=C(O)CCSc1nnc(-c2ccc(Cl)cc2Cl)o1")
-91.0
>>> endpoint_result("CNC(=O)c1cccc2c1CCN2C(=O)Nc1ccc(C)cc1")
-96.8
>>> endpoint_result("O=C(O)c1cccc2c1CCN2C(=O)Nc1ccc(F)cc1")
-98.5
>>> endpoint_result("Cc1ccc(-n2ncc3c(N4CCCCCC4)ncnc32)cc1")
-95.9
>>> endpoint_result("Fc1ccc(-c2cn3cc(Cc4ccccc4)sc3n2)cc1")
-89.0
>>> endpoint_result("COc1ccc(-c2nc(-c3ccc(C(=O)O)cc3)no2)cc1")
-95.8
>>> endpoint_result("CC(CNC(=O)C1CCN(C(=O)c2ncn3c2COC(c2ccccc2)C3)CC1)c1ccccc1 (centres unmarked)")
-73.9
>>> endpoint_result("CC1CCCN(c2ncnc3c2cnn3-c2ccccc2)C1 (centres unmarked)")
-93.0
